Target: Alpha-2C adrenergic receptor (Homo sapiens)
Test: modulators of alpha2C/GIRK thallium flux, primary screen, cell-based, HEK293 alpha2C/GIRK1/2 (AID 624);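 further: slope of fluorescence ratio to pre-addition baseline per second over 15 to 24 s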
Conditions: thallium flux BTC fluorescence, at 10 µM, actives lie on both sides
For each of the compounds below, state its slope.
Numbers only.

Worked set:
COc1ccc2c(c1OC)C(=O)N1c3ccccc3SC21 (configuration not stated) ... 0.00516
O=C(O)CC(NCc1ccco1)C(=O)OCC1CCCO1 (configuration not stated) ... 0.00498
CC1(C)NC(=O)N(CC(O)Cn2nnc3ccccc32)C1=O (configuration not stated) ... 0.0051
c1ccc(-c2nnc(OCCN3CCOCC3)c3ccccc23)cc1 ... 0.00622
Cc1ccc2[nH]c3c(c2c1)CN(C(=O)CN1CCN(c2ccccn2)CC1)CC3 ... 0.00579
COc1ccccc1Nc1ncc(-c2cccs2)s1 ... 0.00327
O=S1CCCSC1c1cccnc1 (configuration not stated) ... 0.00681
CCn1cc(C(=O)NCc2ccco2)c(=O)c2cc(F)c(N3CCN(C(=O)c4ccco4)CC3)cc21 ... 0.00489

Kindly give each listed record's slope.
1. CCOC(=O)c1c(C(C#N)C#N)cc(C)nc1C
2. c1ccc(-c2nnc3sc(Cc4cccs4)nn23)cc1
3. O=C(O)CCCC(=O)Nc1ccn(-c2ccccc2)n1

1: 0.00491; 2: 0.00581; 3: 0.00622

Would you kindly share the measured slope for Cc1cccc(C)c1OCC(O)CNS(=O)(=O)c1ccccc1C(=O)N1CCCCC1 (configuration not stated) ? 0.00455
